Known GI50 of a selection of molecules
# Test system: NCI-H522 lung
# assay overview: NCI tumour cell line growth inhibition, 48 h
measured quantity: GI50

sample smiles	result
O=Nc1ccc(NO)c2ccccc12	13.2 µM
O=C1C=CC(=Nc2cc(Br)c(O)c(Br)c2)C=C1	3.96 µM
CC(C)=CCC[C@](C)(O)[C@H]1CC[C@]2(C)[C@@H]1CC[C@@H]1[C@@]3(C)CC/C(=N/O)C(C)(C)[C@@H]3CC[C@]12C	13.5 µM
S=C(Nc1ccc(-c2nc3ccccc3[nH]2)cc1)Nc1ccc(-c2nc3ccccc3[nH]2)cc1	24.5 µM
CO/N=C(\C)c1ccc(Nc2cc(-c3ccccc3)nc3ccc(OC)cc23)cc1	4.4 µM
CNC(=O)c1ccccc1Nc1nc(Nc2cc(OC)c(OC)c(OC)c2)ncc1Br	0.0417 µM
CC(C)(C)c1cc(-n2c(-c3ccc(Cl)cc3)nc3cc(C(=O)Nc4ccc(Cl)cc4)ccc32)n[nH]1	3.9 µM
Cc1cc(N2CCOCC2)nc(N[C@@H]2CCC[C@H](Nc3ccnc4cc(Cl)ccc34)C2)n1	2.97 µM
CCC(=C/[C@H](C)C/C=C/C(C)=C/[C@@H](C)C(=O)[C@@H](C)[C@H](O)[C@@H](C)CC)/C=C/[C@@H]1OC(=O)C=C[C@H]1C	< 0.01 µM
